Target: TACE (catalytic domain of the recombinant TACE protein) (Homo sapiens)
Construct: The catalytic domain of the recombinant TACE protein was expressed and purified; made in house
Sequence (P78536 223-474 limits assumed): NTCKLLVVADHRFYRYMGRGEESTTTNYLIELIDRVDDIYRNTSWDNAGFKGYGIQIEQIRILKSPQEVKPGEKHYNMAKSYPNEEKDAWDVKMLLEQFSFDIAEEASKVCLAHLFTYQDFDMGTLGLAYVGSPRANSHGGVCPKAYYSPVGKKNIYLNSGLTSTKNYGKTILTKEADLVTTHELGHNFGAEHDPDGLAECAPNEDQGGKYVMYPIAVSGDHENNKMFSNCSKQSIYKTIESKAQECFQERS
Test: TACE FRET assay using TACE Cat
Assay type: biochemical
Conditions: FRET, pro-TNF-α substrate peptide; read-out: TACE IC50
experimentalReadout: IC50 (nM)
The reply should be a number in nM, with the unit left off.

Look over these answered cases.
[
  {
    "compound": "Cc1cc(COc2ccc(S(=O)(=O)N[C@@H]3CCCC[C@H]3C(=O)NO)cc2)c2ccccc2n1 (relative stereo) [Example 14]",
    "recordedResult": 1.8
  },
  {
    "compound": "Cc1cc(COc2ccc(S(=O)(=O)N(C)[C@H]3[C@@H](C(=O)NO)[C@H]4C=C[C@@H]3C4)cc2)c2ccccc2n1 (relative stereo) [Example 8]",
    "recordedResult": 1.5
  }
]

Please find the next compound below.
Task item: What does the record list as IC50 for Cc1cc(COc2ccc(S(=O)(=O)N[C@@H]3CCC[C@@H]3C(=O)NO)cc2)c2ccccc2n1 (relative stereo) [Example 11] ?
Reply: 0.6

Where do these numbers come from? They come from patent US7595327B2.
